- target_or_test_system: extracellular domain of human GPVI (human) (UniProt Q9HCN6)
- assay_details: SPR (Biacore 3000), human GPVI immobilised by amine coupling, Fab as analyte
Field: pKd. Provide a value for each of the binders that follow.
// field semantics: pKd = negative decimal log of concentration (mol/L)

Q) Given humanized anti-GPVI Fab VL1/VH5 (Fab, V domains shown) VH: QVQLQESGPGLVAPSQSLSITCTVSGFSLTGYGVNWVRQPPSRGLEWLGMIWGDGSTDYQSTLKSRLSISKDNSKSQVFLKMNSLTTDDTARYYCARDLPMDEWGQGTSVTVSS VL: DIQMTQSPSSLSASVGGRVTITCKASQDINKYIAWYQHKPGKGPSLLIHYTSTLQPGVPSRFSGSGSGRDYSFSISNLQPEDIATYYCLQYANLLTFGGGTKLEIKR , respond with its pKd.
A) 9.40

Q) Given humanized anti-GPVI Fab VL1/VH3 (Fab, V domains shown) VH: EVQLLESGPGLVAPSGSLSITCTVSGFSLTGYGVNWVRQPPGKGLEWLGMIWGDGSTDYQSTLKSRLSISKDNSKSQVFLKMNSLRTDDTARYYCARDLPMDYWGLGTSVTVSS VL: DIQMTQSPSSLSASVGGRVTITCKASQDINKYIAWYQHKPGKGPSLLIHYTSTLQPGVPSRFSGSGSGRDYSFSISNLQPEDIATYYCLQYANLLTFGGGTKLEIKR , respond with its pKd.
A) 10.00

Q) Given humanized anti-GPVI Fab VL2/VH2 (Fab, V domains shown) VH: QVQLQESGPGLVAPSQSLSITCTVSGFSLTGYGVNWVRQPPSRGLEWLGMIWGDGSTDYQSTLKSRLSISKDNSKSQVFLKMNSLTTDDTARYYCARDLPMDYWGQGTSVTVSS VL: DIQMTQSPSSLSASVGGRVTITCKASQDINKYIAWYQHKPGKGPSLLIHYTSTLQPGVPSRFSGSGSGRDYSFSISNLQPEDIATYYCLQYAHLLTFGGGTKLEIKR , respond with its pKd.
A) 9.52
